- Test system: SF-539
- protocol description: Anticancer activity against human SF-539 cells assessed as cell growth inhibition at 10 uM incubated for 48 hrs by SRB assay relative to control
- Type: functional
- condition label: read-out: GI
parameter: inhibition of growth at 10 µM (%)
State just the number; it will be interpreted in %.

[
  {
    "line notation": "NS(=O)(=O)c1ccc(Nc2nc(N/N=C/c3ccc([N+](=O)[O-])cc3)nc(Nc3ccccc3)n2)cc1",
    "assay system": "SF-539",
    "inhibition of growth at 10 µM / %": 136
  }
]

Lookup: Which inhibition of growth at 10 µM is reported for this molecule? NS(=O)(=O)c1ccc(Nc2nc(N/N=C/c3cccc4ccccc34)nc(Nc3ccccc3)n2)cc1
Found: 22

Lookup: Now the molecule CCCCc1nc(/C=N/Nc2nc(Nc3ccccc3)nc(Nc3ccc(S(N)(=O)=O)cc3)n2)c(Cl)[nH]1
Found: 18

Lookup: Now the molecule NS(=O)(=O)c1ccc(Nc2nc(N/N=C/c3cccs3)nc(Nc3ccccc3)n2)cc1
Found: 34

Lookup: Now the molecule NS(=O)(=O)c1ccc(Nc2nc(N/N=C/c3ccc4c(c3)OCO4)nc(Nc3ccccc3)n2)cc1
Found: 83

Lookup: Now the molecule NS(=O)(=O)c1ccc(Nc2nc(N/N=C/c3c[nH]c4ccccc34)nc(Nc3ccccc3)n2)cc1
Found: 52

Lookup: Now the molecule Cc1ccc(/C=N/Nc2nc(Nc3ccccc3)nc(Nc3ccc(S(N)(=O)=O)cc3)n2)cc1
Found: 55

Lookup: Now the molecule NS(=O)(=O)c1ccc(Nc2nc(N/N=C/c3ccc(C(F)(F)F)cc3)nc(Nc3ccccc3)n2)cc1
Found: 76

Lookup: Now the molecule NS(=O)(=O)c1ccc(Nc2nc(N/N=C/C=C/c3ccccc3)nc(Nc3ccccc3)n2)cc1
Found: 60

Lookup: Now the molecule NS(=O)(=O)c1ccc(Nc2nc(N/N=C/c3ccc(F)cc3)nc(Nc3ccccc3)n2)cc1
Found: 37

Lookup: Now the molecule CN(C)c1ccc(/C=N/Nc2nc(Nc3ccccc3)nc(Nc3ccc(S(N)(=O)=O)cc3)n2)cc1
Found: 59

----------
Each entry below carries its recorded CC50.
- Test system: RXF 393
- protocol description: Anticancer activity against human RXF 393 cells assessed as cell growth inhibition incubated for 48 hrs by SRB assay
- Format: functional
- condition label: read-out: LC50 (the source's name)
State just the number; it will be interpreted in µM.

Past entries and their recorded results:
[
  {
    "line notation": "NS(=O)(=O)c1ccc(Nc2nc(N/N=C/c3ccccn3)nc(Nc3ccccc3)n2)cc1",
    "CC50 / µM": 6.51
  },
  {
    "line notation": "NS(=O)(=O)c1ccc(Nc2nc(N/N=C/c3ccc(C(F)(F)F)cc3)nc(Nc3ccccc3)n2)cc1",
    "CC50 / µM": 35.5
  }
]

Proceeding to the next molecule to report its CC50.
Lookup: Which CC50 is reported for this molecule? Cc1nn(-c2ccccc2)cc1/C=N/Nc1nc(Nc2ccccc2)nc(Nc2ccc(S(N)(=O)=O)cc2)n1
Found: 6.5

----------
Each entry below carries its recorded inhibition of growth at 10 µM.
- Test system: NCI/ADR-RES
- protocol description: Anticancer activity against human NCI/ADR-RES cells assessed as cell growth inhibition at 10 uM incubated for 48 hrs by SRB assay relative to control
- Type: functional
- condition label: read-out: GI

Lookup: Which inhibition of growth at 10 µM is reported for this compound? NS(=O)(=O)c1ccc(Nc2nc(N/N=C/c3ccccn3)nc(Nc3ccccc3)n2)cc1
Found: 51%

Lookup: Now the compound NS(=O)(=O)c1ccc(Nc2nc(N/N=C/c3ccc4c(c3)OCO4)nc(Nc3ccccc3)n2)cc1
Found: < 10%

Lookup: Now the compound NS(=O)(=O)c1ccc(Nc2nc(N/N=C/C=C/c3ccccc3)nc(Nc3ccccc3)n2)cc1
Found: < 10%

Lookup: Now the compound CN(C)c1ccc(/C=N/Nc2nc(Nc3ccccc3)nc(Nc3ccc(S(N)(=O)=O)cc3)n2)cc1
Found: < 10%

Lookup: Now the compound Cc1ccc(/C=N/Nc2nc(Nc3ccccc3)nc(Nc3ccc(S(N)(=O)=O)cc3)n2)cc1
Found: < 10%
